# system_name: Tyrosine-protein kinase Fer (Homo sapiens) (UniProt P16591);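 also: reported figures are averaged percent inhibition of FER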
# Sequence (P16591 whole entry, looked up): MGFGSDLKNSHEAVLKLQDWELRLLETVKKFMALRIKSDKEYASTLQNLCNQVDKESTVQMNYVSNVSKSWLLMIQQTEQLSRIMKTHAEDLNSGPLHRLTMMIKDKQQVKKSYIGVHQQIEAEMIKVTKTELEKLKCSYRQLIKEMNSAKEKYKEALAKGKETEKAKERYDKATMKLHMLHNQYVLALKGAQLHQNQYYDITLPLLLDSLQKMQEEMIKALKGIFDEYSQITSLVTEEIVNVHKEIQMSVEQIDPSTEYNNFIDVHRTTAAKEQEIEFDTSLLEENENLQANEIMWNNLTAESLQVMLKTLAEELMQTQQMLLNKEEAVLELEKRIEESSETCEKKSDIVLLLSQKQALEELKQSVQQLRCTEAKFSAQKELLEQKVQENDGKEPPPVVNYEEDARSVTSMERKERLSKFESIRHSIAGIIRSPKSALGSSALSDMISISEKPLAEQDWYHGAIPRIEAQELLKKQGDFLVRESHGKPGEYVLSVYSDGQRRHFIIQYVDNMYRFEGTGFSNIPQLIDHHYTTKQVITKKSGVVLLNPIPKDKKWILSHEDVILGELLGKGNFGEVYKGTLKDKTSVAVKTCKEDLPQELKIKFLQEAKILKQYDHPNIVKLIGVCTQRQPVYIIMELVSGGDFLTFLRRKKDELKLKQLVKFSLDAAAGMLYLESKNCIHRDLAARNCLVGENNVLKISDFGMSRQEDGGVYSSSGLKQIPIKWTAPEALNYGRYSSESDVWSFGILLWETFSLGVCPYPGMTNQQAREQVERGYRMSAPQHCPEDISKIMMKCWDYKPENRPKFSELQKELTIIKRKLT
# particulars: at 0.1 µM
inhibition: recorded values

{"columns": ["molecular_string", "display_unit", "inhibition"],
 "data": [
  ["CC(C)(CO)CNC(=O)c1ccc2c(c1)/C(=N/Nc1ccc(S(N)(=O)=O)cc1)C(=O)N2", "%", -7.05],
  ["O=C(Nc1n[nH]c2cc(-c3ccc(F)cc3)ccc12)C1CC1", "%", 5.3],
  ["CCn1c(-c2nonc2N)nc2ccccc21", "%", 5.9]
]}

----------
# Lookup of reported inhibition keyed by entry
# system_name: Interleukin-1 receptor-associated kinase 4 (Homo sapiens) (UniProt Q9NWZ3);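 also: reported figure is the mean inhibition of IRAK4 activity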
# Sequence (Q9NWZ3 whole entry): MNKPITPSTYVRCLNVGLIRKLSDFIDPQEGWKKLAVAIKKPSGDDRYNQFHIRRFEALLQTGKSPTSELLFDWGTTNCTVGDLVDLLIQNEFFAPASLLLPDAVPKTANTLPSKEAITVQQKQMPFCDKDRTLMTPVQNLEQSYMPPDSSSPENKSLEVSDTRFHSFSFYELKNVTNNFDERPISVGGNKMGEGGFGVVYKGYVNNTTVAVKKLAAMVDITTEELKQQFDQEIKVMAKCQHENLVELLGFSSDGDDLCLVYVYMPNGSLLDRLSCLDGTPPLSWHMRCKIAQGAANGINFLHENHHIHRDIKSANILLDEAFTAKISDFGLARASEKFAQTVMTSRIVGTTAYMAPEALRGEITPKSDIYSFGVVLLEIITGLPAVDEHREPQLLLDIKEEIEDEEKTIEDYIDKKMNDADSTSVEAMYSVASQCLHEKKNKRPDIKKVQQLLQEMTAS
# particulars: at 0.1 µM

{"columns": ["molecular_string", "inhibition [%]"],
 "data": [
  ["CNC(=O)c1cc(-c2ccc(F)cc2)cc(-c2ccc(S(=O)(=O)N3CCCC3)cc2)c1N", 0.68],
  ["CC(C)(CO)CNC(=O)c1ccc2c(c1)/C(=N/Nc1ccc(S(N)(=O)=O)cc1)C(=O)N2", -1.23],
  ["CCN1CCC(CC(=O)Nc2n[nH]c3nnc(-c4cccc(F)c4F)cc23)CC1", 0.45]
]}

----------
# system_name: MAP kinase-activated protein kinase 2 (Homo sapiens) (UniProt P49137);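 also: values are mean inhibition from the GSK PKIS screen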
# Sequence (P49137 whole entry, looked up): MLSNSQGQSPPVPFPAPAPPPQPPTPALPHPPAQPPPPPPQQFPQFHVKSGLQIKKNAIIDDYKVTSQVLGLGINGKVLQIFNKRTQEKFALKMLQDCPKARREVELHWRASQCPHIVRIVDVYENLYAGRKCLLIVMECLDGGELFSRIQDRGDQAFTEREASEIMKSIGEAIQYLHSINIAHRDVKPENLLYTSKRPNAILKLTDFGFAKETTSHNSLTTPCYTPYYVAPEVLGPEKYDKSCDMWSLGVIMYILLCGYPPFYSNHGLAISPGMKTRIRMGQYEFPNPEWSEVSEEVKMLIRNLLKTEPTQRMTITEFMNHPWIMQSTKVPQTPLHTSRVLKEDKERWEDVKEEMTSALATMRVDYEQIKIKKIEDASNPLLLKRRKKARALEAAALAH
# particulars: at 1 µM
measured_attribute: inhibition (%)

{"columns": ["molecular_string", "recorded_result"],
 "data": [
  ["[O-][S+]1CCN(Cc2ccc(-c3ccc4ncnc(Nc5ccc(OCc6cccc(F)c6)c(Cl)c5)c4c3)o2)CC1", 1.59],
  ["CCn1c(-c2nonc2N)nc2c(C#CC(C)(C)O)ncc(OC3CCNCC3)c21", 3.78],
  ["CCOc1ccc2c(-c3ccnc(Nc4cccc(C(F)(F)F)c4)n3)cnn2n1", -0.24],
  ["Nc1nc(-c2ccc(F)cc2)c(-c2ccc3ncccc3n2)s1", 1.53],
  ["O=C(Nc1n[nH]c2cc(-c3ccc(F)cc3)ccc12)C1CC1", 4.01],
  ["NC(=O)c1sc(-n2cnc3ccc(C(F)(F)F)cc32)cc1OCc1ccccc1Br", 0.94],
  ["COc1cc(N2CCN(C(C)C)CC2)ccc1Nc1nc(Nc2ccc(F)cc2C(N)=O)c2cc[nH]c2n1", 5.03],
  ["COc1cc2ncn(-c3cc(OCc4ccccc4C(F)(F)F)c(C(=O)N(C)C)s3)c2cc1OC", -0.4],
  ["CN1CCC(n2cnc(-c3ccc(F)cc3)c2-c2ccnc(N)n2)CC1", 0.33]
]}

----------
# system_name: RAC-alpha serine/threonine-protein kinase (Homo sapiens);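 also: reported values are mean inhibition figures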
# particulars: at 0.1 µM
measured_attribute: inhibition

{"columns": ["molecular_string", "recorded_result"],
 "data": [
  ["CCNC(=O)O[C@H]1CN[C@H](C#Cc2cc3ncnc(Nc4ccc(OCc5cccc(F)c5)c(Cl)c4)c3s2)C1", "1.21%"],
  ["CCn1cc(-c2ccnc3[nH]ccc23)c(-c2cccc(NC(=O)Nc3ccc(OCc4ccccc4)cc3)c2)n1", "1.5%"],
  ["NC(=O)c1sc(-n2cnc3ccc(C(F)(F)F)cc32)cc1OCc1ccccc1Br", "0.43%"],
  ["[O-][S+]1CCN(Cc2ccc(-c3ccc4ncnc(Nc5ccc(OCc6cccc(F)c6)c(Cl)c5)c4c3)o2)CC1", "2.98%"],
  ["O=C(O[C@H]1CN[C@H](C#Cc2cc3ncnc(Nc4ccc(Cc5ccccc5)cc4)c3s2)C1)N1CCOCC1", "-0.07%"],
  ["Nc1nc(-c2ccc(F)cc2)c(-c2ccc3ncccc3n2)s1", "0.67%"],
  ["COC(=O)Nc1nc2ccc(Oc3ccc(NC(=O)Nc4cccc(Cl)c4)cc3)cc2[nH]1", "-0.35%"],
  ["O=S(=O)(CCNCc1ccc(-c2ccc3ncnc(Nc4ccc(OCc5cccc(F)c5)c(Cl)c4)c3c2)o1)c1ccccc1", "1.7%"],
  ["Clc1ccc(-c2nn3ncccc3c2-c2ccnc(Nc3ccccc3)n2)cc1", "0.13%"],
  ["CCn1c(-c2nonc2N)nc2c(C#CC(C)(C)O)nc(OC[C@H](N)c3ccccc3)cc21", "64.2%"],
  ["COc1ccc(-c2nn3ncccc3c2-c2ccnc(Nc3ccc4c(c3)OCCO4)n2)cc1", "-0.35%"],
  ["COc1cc(Nc2nccc(Nc3ccc4c(C)n[nH]c4c3)n2)cc(OC)c1OC", "0.02%"],
  ["c1ccc(COc2ccc(Nc3ncnc4ccc(-c5ccco5)cc34)cc2)cc1", "0.02%"],
  ["Cc1cccc(Nc2ncc(-c3ccccc3)o2)c1", "2.47%"],
  ["CC(=O)Nc1cccc(C#Cc2cncnc2Nc2ccc(OCc3cccc(F)c3)c(Cl)c2)c1", "0.35%"],
  ["COc1cc(/C=N/Nc2ncnc3[nH]ncc23)ccc1O", "0.87%"],
  ["CCN1CCC(CC(=O)Nc2n[nH]c3nnc(-c4cccc(F)c4F)cc23)CC1", "0.38%"],
  ["NS(=O)(=O)c1ccc(Nc2ncc(-c3ccccc3)o2)cc1", "0.78%"]
]}

----------
# system_name: Serine/threonine-protein kinase PAK 6 (Homo sapiens) (UniProt Q9NQU5);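 also: mean PAK6 inhibition reported from the GSK PKIS screen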
# Sequence (Q9NQU5 whole entry, looked up): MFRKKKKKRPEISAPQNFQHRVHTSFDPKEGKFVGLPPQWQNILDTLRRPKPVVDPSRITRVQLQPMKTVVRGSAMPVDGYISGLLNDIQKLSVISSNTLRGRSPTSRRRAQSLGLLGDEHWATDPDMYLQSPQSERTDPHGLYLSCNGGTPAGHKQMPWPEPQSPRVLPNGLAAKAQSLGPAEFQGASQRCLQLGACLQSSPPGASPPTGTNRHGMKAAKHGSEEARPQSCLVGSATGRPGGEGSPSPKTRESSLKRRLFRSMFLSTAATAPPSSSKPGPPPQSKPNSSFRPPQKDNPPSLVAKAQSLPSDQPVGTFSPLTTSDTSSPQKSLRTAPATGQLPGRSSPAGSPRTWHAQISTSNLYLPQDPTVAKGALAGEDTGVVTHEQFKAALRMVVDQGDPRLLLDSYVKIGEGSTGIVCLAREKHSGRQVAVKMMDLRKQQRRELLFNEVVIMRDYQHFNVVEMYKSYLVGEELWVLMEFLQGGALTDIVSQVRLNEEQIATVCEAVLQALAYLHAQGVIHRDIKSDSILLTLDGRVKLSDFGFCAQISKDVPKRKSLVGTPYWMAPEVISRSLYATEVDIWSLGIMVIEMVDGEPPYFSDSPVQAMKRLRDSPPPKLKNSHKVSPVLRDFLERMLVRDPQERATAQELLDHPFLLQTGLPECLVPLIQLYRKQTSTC
# particulars: at 0.1 µM
# reported inhibition; entries follow

{"columns": ["molecular_string", "display_unit", "inhibition"],
 "data": [
  ["c1ccc(COc2ccc(Nc3ncnc4ccc(-c5ccco5)cc34)cc2)cc1", "%", 3.06],
  ["CS(=O)(=O)CCNCc1coc(-c2ccc3ncnc(Nc4ccc(OCc5ccccc5)cc4)c3c2)c1", "%", -4],
  ["CN1CCC(n2cnc(-c3ccc(F)cc3)c2-c2ccnc(Nc3ccccc3)n2)CC1", "%", -9.85],
  ["Fc1ccc(-c2nn3ccccc3c2-c2ccncc2)cc1", "%", 4.75],
  ["Nc1nc(-c2cccc(Cl)c2)c(-c2ccc3ncccc3n2)s1", "%", 3.19],
  ["NS(=O)(=O)c1ccc(Nc2ncc(-c3ccccc3)o2)cc1", "%", -1.35],
  ["COC(=O)Nc1nc2ccc(Oc3ccc(NC(=O)Nc4cccc(Cl)c4)cc3)cc2[nH]1", "%", -3.19],
  ["CNC(=O)c1cncc(/C=C/c2ccccc2Cl)c1", "%", 8.93],
  ["COc1ccc(-c2cc(-c3c[nH]nc3-c3ccccn3)ccn2)cc1", "%", 6.89],
  ["CNC(=O)c1cc(-c2ccc(F)cc2)cc(-c2ccc(S(=O)(=O)N3CCCC3)cc2)c1N", "%", -9.04],
  ["CCN(CC)S(=O)(=O)c1ccc(OC)c(Nc2ncc(-c3ccccc3)o2)c1", "%", 5.19],
  ["COc1cc(Nc2nccc(Nc3ccc4c(C)n[nH]c4c3)n2)cc(OC)c1OC", "%", -4.29],
  ["COc1ccc2c(-c3ccnc(Nc4cccc(OC(F)(F)F)c4)n3)cnn2n1", "%", 5.76],
  ["N#Cc1c(NC(=O)c2ccc(F)cc2)sc2c1CCCC2", "%", -7.52],
  ["CC(C)(CO)CNC(=O)c1ccc2c(c1)/C(=N/Nc1ccc(S(N)(=O)=O)cc1)C(=O)N2", "%", 2.03],
  ["NS(=O)(=O)c1ccc(N/N=C2\\C(=O)Nc3ccc4ncccc4c32)cc1", "%", -4.05],
  ["Cc1cccc2c1NC(=O)/C2=N\\Nc1ccc(S(N)(=O)=O)cc1", "%", 3.7],
  ["COc1ccc(-c2cc3c(N)ncnc3o2)cc1", "%", -8.16],
  ["Cc1ccc2c(-c3ccnc(Nc4ccccc4)n3)c(-c3ccc(F)cc3)nn2n1", "%", 1.48],
  ["O=S(=O)(CCNCc1ccc(-c2ccc3ncnc(Nc4ccc(OCc5cccc(F)c5)c(Cl)c4)c3c2)o1)c1ccccc1", "%", 0.2],
  ["c1cc(-c2cnn3nc(N4CCOCC4)ccc23)nc(NC2CC2)n1", "%", 4.42],
  ["COc1ccc2[nH]c3c4[nH]c5ccc(OC)cc5c4c4c(c3c2c1)C(=O)NC4=O", "%", 4.49],
  ["COc1cc(/C=N/Nc2ncnc3[nH]ncc23)ccc1O", "%", -5.57]
]}

----------
Each entry below carries its recorded inhibition.
# system_name: MAP/microtubule affinity-regulating kinase 4 (Homo sapiens);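 also: values are averaged percent inhibition of MARK4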
# particulars: at 0.1 µM
measured_attribute: inhibition (%)

{"columns": ["molecular_string", "system_name", "recorded_result"],
 "data": [
  ["COc1cc(Nc2nccc(Nc3ccc4c(C)n[nH]c4c3)n2)cc(OC)c1OC", "MAP/microtubule affinity-regulating kinase 4 (Homo sapiens)", 1.78],
  ["Nc1ncc(-c2cccc(S(N)(=O)=O)c2)c2scc(-c3ccc(F)c(Cl)c3)c12", "MAP/microtubule affinity-regulating kinase 4 (Homo sapiens)", 3.07],
  ["O=C(Nc1n[nH]c2cc(-c3ccc(F)cc3)ccc12)C1CC1", "MAP/microtubule affinity-regulating kinase 4 (Homo sapiens)", 2],
  ["CN1CCC(n2cnc(-c3ccc(F)cc3)c2-c2ccnc(Nc3ccccc3)n2)CC1", "MAP/microtubule affinity-regulating kinase 4 (Homo sapiens)", 0.39],
  ["[O-][S+]1CCN(Cc2ccc(-c3ccc4ncnc(Nc5ccc(OCc6cccc(F)c6)c(Cl)c5)c4c3)o2)CC1", "MAP/microtubule affinity-regulating kinase 4 (Homo sapiens)", 3.49]
]}
